details: in ethanol, 283.15 K
measure: solubility (mole fraction)
Answer with a bare number; do not write a unit.

Consider "CO[C@H]1/C=C/O[C@@]2(C)Oc3c(C)c(O)c4c(O)c(c(/C=N/N5CCN(C6CCCC6)CC5)c(O)c4c3C2=O)NC(=O)/C(C)=C\C=C\[C@H](C)[C@H](O)[C@@H](C)[C@@H](O)[C@@H](C)[C@H](OC(C)=O)[C@@H]1C" . Its measured solubility (mole fraction) is 0.000525

---

details: in chloroform, 283.15 K
measure: solubility (mole fraction)
Answer with a bare number; do not write a unit.

Consider "CO[C@H]1/C=C/O[C@@]2(C)Oc3c(C)c(O)c4c(O)c(c(/C=N/N5CCN(C6CCCC6)CC5)c(O)c4c3C2=O)NC(=O)/C(C)=C\C=C\[C@H](C)[C@H](O)[C@@H](C)[C@@H](O)[C@@H](C)[C@H](OC(C)=O)[C@@H]1C" . Its measured solubility (mole fraction) is 0.0265

Measured values drawn from BigSolDB 2.1 for this set.
